# assayed.target: recombinant human ALX receptor (Homo sapiens, UniProt P25090)
# Sequence (P25090 1-351): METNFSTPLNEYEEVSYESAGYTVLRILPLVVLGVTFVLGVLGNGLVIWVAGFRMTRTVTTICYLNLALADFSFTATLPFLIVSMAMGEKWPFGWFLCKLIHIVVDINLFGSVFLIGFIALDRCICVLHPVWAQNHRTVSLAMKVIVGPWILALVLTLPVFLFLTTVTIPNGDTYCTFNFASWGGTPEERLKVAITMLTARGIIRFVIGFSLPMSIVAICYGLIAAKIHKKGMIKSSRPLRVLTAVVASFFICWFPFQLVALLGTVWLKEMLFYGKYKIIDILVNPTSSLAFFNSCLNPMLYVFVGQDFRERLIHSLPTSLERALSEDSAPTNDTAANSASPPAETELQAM
# test.protocol: Intracellular calcium measurements (FLIPR), ALX receptor agonistic activity
# run.conditions: HEK293-hALXR-Gα16 cells, Fluo-4 calcium signal, normalized to WKYMVm 10 nM
Counter-ions that a name gives are not always drawn.
Measured log10 EC50 by item
Scale: log10; quantity: EC50; unit before log: nM

compound | measurement.label | recorded.result
COc1ccc(C[C@@H](NC(=O)N[C@@H](C)c2cccc(OC)c2)c2nc3ccccc3[nH]2)cc1 | log10 EC50 | 1.64

Enquiry: Quote recombinant human ALX receptor (Homo sapiens, UniProt P25090) log10 EC50 for entry COc1ccc(C[C@@H](NC(=O)NCC2COc3cnccc32)c2nc3ccccc3[nH]2)cc1 (stereo partly shown) .
Return: 2.55

Enquiry: Given COc1ccc(C[C@@H](NC(=O)N[C@H]2CC[C@H](C(=O)O)CC2)c2nc3ccccc3[nH]2)cc1 [Example 225, lithium salt] , report its log10 EC50 on recombinant human ALX receptor (Homo sapiens, UniProt P25090).
Return: 1.68

Enquiry: For recombinant human ALX receptor (Homo sapiens, UniProt P25090), give the measured log10 EC50 of the entry COc1ccc(CC(NC(=O)NCC2CCCC2)c2nc3ccccc3[nH]2)cc1 (stereo not shown)
Return: 2.34

---

Item-by-item account of pEC50
# assayed.target: recombinant human ALX receptor (Homo sapiens, UniProt P25090)
# Construct: expressed in transfected cells; host or cells: HEK293 (HEK293-hALXR-Gα16)
# Sequence (P25090 1-351): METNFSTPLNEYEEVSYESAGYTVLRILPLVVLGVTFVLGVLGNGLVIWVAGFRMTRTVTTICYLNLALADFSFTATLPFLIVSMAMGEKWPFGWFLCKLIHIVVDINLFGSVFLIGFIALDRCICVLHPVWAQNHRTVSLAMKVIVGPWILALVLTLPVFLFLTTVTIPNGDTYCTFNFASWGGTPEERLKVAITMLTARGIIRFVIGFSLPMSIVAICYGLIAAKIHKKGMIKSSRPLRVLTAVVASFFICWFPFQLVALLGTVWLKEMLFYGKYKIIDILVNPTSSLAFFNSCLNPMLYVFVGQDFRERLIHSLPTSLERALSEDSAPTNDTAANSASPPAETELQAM
# test.protocol: Intracellular calcium measurements (FLIPR), ALX receptor agonistic activity
# Type: cell-based
# run.conditions: HEK293-hALXR-Gα16 cells, Fluo-4 calcium signal, normalized to WKYMVm 10 nM
// pEC50: -log10(molar conc.)

Guide cases for pEC50, answers given:
molecule | recorded.result
COc1ccc(CC(NC(=O)Nc2cc(-c3ccc(OC)cc3)n[nH]2)c2nc3ccccc3[nH]2)cc1 (centres unmarked) | 6.80
COC[C@@H](NC(=O)N[C@H](Cc1ccc(OC)cc1)c1nc2ccccc2[nH]1)c1ccccc1 | 7.28
COc1ccc(CC(NC(=O)NCCc2c(C)noc2C)c2nc3ccccc3[nH]2)cc1 (centres unmarked) | 6.09
CCOC(=O)[C@@H]1CCCC[C@H]1NC(=O)N[C@H](Cc1ccc(OC)cc1)c1nc2ccccc2[nH]1 (relative stereo) [Example 29] | 7.25
CCC(NC(=O)N[C@H](Cc1ccc(OC)cc1)c1nc2ccccc2[nH]1)c1ccccc1 (some centres unmarked) | 7.40
COc1ccc(C[C@@H](NC(=O)NCCc2ccc(C(F)(F)F)cc2)c2nc3ccccc3[nH]2)cc1 | 6.33

Enquiry: Specify reported pEC50 for the molecule shown: COc1ccc(C[C@@H](NC(=O)N[C@H]2CC[C@H](O)CC2)c2nc3ccc(Cl)cc3[nH]2)cc1
Return: 9.00

Enquiry: Dear colleague, please send me the reported pEC50 for COc1ccc(C[C@@H](NC(=O)NCc2cccc(OC)c2)c2nc3ccccc3[nH]2)cc1 when you can.
Return: 6.22

---

# assayed.target: recombinant human ALX receptor (Homo sapiens, UniProt P25090)
# Construct: expressed in transfected cells; host or cells: HEK293 (HEK293-hALXR-Gα16)
# test.protocol: Intracellular calcium measurements (FLIPR), ALX receptor agonistic activity
# Assay type: cell-based
# run.conditions: HEK293-hALXR-Gα16 cells, Fluo-4 calcium signal, normalized to WKYMVm 10 nM
Counter-ions that a name gives are not always drawn.
measurement.label: EC50 (nM)
Kindly provide the numeric value in nM only, without the unit symbol.

Recorded EC50, per entry:
compound | recorded.result
COc1cc(F)c(CC(NC(=O)N[C@H]2CC[C@H](O)CC2)c2nc3ccccc3[nH]2)c(F)c1 (single isomer, unassigned; ent-1) [Example 316] | 3.2
COc1ccc(CC(NC(=O)NCCCN(C)C)c2nc3ccccc3[nH]2)cc1 (stereo not drawn) | 1070
COc1ccc(CC(NC(=O)Nc2ccnn2-c2ccc(F)cc2)c2nc3ccccc3[nH]2)cc1 (stereo not drawn) | 45

Enquiry: Please report EC50 for the following compound: COc1ccc(C[C@@H](NC(=O)NC23CCC(O)(CC2)CC3)c2nc3ccc(F)cc3[nH]2)cc1
Return: 0.8

Enquiry: Please list EC50 recorded for the compound O=C(NC(Cc1ccc(Br)c(F)c1)c1nc2ccccc2[nH]1)NC12CCC(O)(CC1)CC2 (stereo not drawn) [Example 230]
Return: 21

Enquiry: Give the reported value of EC50 for this record: COc1ccc(CC(NC(=O)N[C@H]2CC[C@H](O)CC2)c2nc3ccc(F)cc3[nH]2)c(F)c1 (single isomer, unassigned; ent-2) [Example 370]
Return: 717

Enquiry: // fetch EC50 given entry COc1ccc(CC(NC(=O)N[C@H]2CC[C@H](O)CC2)c2nc3ncncc3[nH]2)cc1 (relative stereo)
Return: 374

Enquiry: Name the recorded EC50 of the item COc1cc(F)c(CC(NC(=O)N[C@H]2CC[C@H](O)CC2)c2nc3ccccc3[nH]2)c(F)c1 (relative stereo) [Example 235] in your answer.
Return: 3.2

Enquiry: Specify EC50 for COc1ccc(CC(NC(=O)Nc2ccnn2-c2ccncc2)c2nc3ccccc3[nH]2)cc1 (stereo not drawn) and stop.
Return: 362

Enquiry: Supply reported EC50 belonging to this compound: COc1ccc(C[C@@H](NC(=O)NC2CC(C)(C)NC(C)(C)C2)c2nc3ccc(C#N)cc3[nH]2)cc1
Return: 8.7

Enquiry: Return the recorded EC50 value; entry: COc1ccc(CC(NC(=O)N[C@H](C)c2cccc(Cl)c2)c2nc3ccccc3[nH]2)cc1 (stereo partly drawn)
Return: 776

Enquiry: Hello, please tell me recorded EC50 for this one: COc1ccc(CC(NC(=O)Nc2cc(C)nn2C)c2nc3ccccc3[nH]2)cc1 (stereo not drawn)
Return: 89

Enquiry: Look up and state reported EC50 for COc1ccc(C[C@@H](NC(=O)N[C@H](C)c2ccc(Cl)cc2)c2nc3ccccc3[nH]2)cc1
Return: 285

Enquiry: Provide only the value of recorded EC50 for COc1ccc(C[C@@H](NC(=O)N[C@@H](C)C2CCCCC2)c2nc3ccccc3[nH]2)cc1
Return: 365

Enquiry: Provide only the value of recorded EC50 for COc1ccc(CC(NC(=O)Nc2ccnn2C)c2nc3ccccc3[nH]2)cc1 (stereo not drawn)
Return: 210

Enquiry: Quickly give me recorded EC50 for COc1ccc(CC(NC(=O)NC2CCCC(O)C2)c2nc3ccccc3[nH]2)cc1 (stereo not drawn)
Return: 27

Enquiry: Retrieve EC50 measured for O=C(NC(Cc1ccc(Br)c(F)c1)c1nc2ccccc2[nH]1)N[C@H]1CC[C@H](O)CC1 (relative stereo) [Example 187] and print it.
Return: 8.1

Enquiry: Please look at this compound and report its EC50: Cc1ccc2nc([C@@H](Cc3ccc(Br)cc3)NC(=O)N[C@H]3CC[C@H](O)CC3)[nH]c2c1
Return: 4

Enquiry: Return value of EC50 for input COc1ccc(CC(NC(=O)Nc2cc(-c3ccc(Cl)cc3)nn2C)c2nc3ccccc3[nH]2)cc1 (stereo not drawn) , no commentary.
Return: 118

Enquiry: Retrieve EC50 measured for COc1ccc(CC(C)(NC(=O)Nc2cc(C3CC3)nn2C)c2nc3ccccc3[nH]2)cc1 (stereo not drawn) and print it.
Return: 720

Enquiry: Annotate the compound COc1ccc(C[C@@H](NC(=O)NCCc2cccc(Cl)c2)c2nc3ccccc3[nH]2)cc1 [Example 61, hydrochloride] with its measured EC50.
Return: 239
